# SYSTEM_NAME: human histamine H4 receptor (Homo sapiens, UniProt Q9H3N8)
# Construct: purchased PerkinElmer Inc; host or cells: CHO-K1
# Sequence (Q9H3N8 whole entry): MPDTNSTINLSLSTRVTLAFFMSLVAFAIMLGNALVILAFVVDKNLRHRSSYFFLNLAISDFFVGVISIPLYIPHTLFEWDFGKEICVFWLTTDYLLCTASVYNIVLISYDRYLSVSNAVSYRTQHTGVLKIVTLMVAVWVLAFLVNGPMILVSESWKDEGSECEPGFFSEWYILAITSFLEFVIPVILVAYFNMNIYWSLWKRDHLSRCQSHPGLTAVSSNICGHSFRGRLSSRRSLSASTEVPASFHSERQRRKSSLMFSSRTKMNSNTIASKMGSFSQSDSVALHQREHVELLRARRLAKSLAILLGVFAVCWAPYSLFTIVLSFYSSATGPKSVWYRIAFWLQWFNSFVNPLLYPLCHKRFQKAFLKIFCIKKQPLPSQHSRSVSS
# METHOD_NOTES: Evaluation of H4 Receptor Function ([35S]GTPγS binding)
# Format: biochemical
# CONDITION: [35S]GTPγS binding, CHO-K1 membrane, 0.1 μM histamine; read-out: Evaluation of H4 Receptor Function (IC50 value, antagonistic effect)
READOUT_TYPE: IC50

Please review the following examples before continuing.
Nc1nc2c(c(N3CCN(CCOCc4ccc(C(=O)O)o4)CC3)n1)CCc1cc(OCc3ccc(OC(F)(F)F)cc3)ccc1-2 [20(b)] | 200 to 2000 nM
Nc1nc2c(c(N3CCN(CCOC[C@H]4CC[C@H](C(=O)O)CC4)CC3)n1)CCc1cc(OCc3ccc(OC(F)(F)F)cc3)ccc1-2 [Example 29] | < 200 nM
Nc1nc2c(c(N3CCN(CCO[C@H]4C[C@@H](C(=O)O)C4)CC3)n1)CCc1cc(OCc3ccc(Cl)cc3)ccc1-2 [Example 14] | 200 to 2000 nM

Give IC50 for CN1CCN(c2nc(N)nc3c2CCc2cc(OCc4ccsc4)ccc2-3)CC1 [Example 3] tested on human histamine H4 receptor (Homo sapiens, UniProt Q9H3N8).
< 200 nM

# assay system human histamine H4 receptor (Homo sapiens, UniProt Q9H3N8): give IC50 of Nc1nc2c(c(N3CCN(CCOCc4cccc(C(=O)O)n4)CC3)n1)CCc1cc(OCc3ccc(Cl)cc3)ccc1-2 [18(b), bis(trifluoroacetate)]
200 to 2000 nM

Values were extracted from patent US20190047966A1.
